Please respond with reported EC50 for every item in the list.
substrate: NP of A/Brisbane/59/2007(H1N1/H1B) (influenza A virus A/Brisbane/59/2007 (H1N1)); assay: ELISA on virus-infected fixed MDCK cells
API: value field is a number in nM; no unit string.

Query block: Param item = NP21 (antibody, V domains shown) VH: EVQLVESGGGLVQPGGSLRLSCAASGFTINGYGIHWVRQAPGKGLEWVAGIWPYGGSTFYADSVKGRFTISADTSKNTAYLQMNSLRAEDTAVYYCARFYNNHGGIMDYWGQGTLVTVSS VL: DIQMTQSPSSLSASVGDRVTITCRASQDVYFYVAWYQQKPGKAPKLLIYGSRWLYSGVPSRFSGSGSGTDFTLTISSLQPEDFATYYCQQYSNFPVTFGQGTKVEIKR ; retrieve measured EC50.
Result block: 4.6

Query block: Param item = NP18 (antibody, V domains shown) VH: EVQLVESGGGLVQPGGSLRLSCAASGFTISGGGIHWVRQAPGKGLEWVASIWPSWGSTSYADSVKGRFTISADTSKNTAYLQMNSLRAEDTAVYYCARFHNGGFLVMDYWGQGTLVTVSS VL: DIQMTQSSSSLSASVGDRVTITCRASQDVGYYVAWYQQKPGKAPKLLIYGPRFLYSGVPSRFSGSGSGTDFTLTISSLQPEDFATYYCQQYSNWPITFGQGTKVEIKR ; retrieve measured EC50.
Result block: 7

Query block: Param item = NP19 (antibody, V domains shown) VH: EVQLVESGGGLVQPGGSLRLSCAASGFTISSWGIHWVRQAPGKGLEWVAGIGPFWGYTSYADSVKGRFTISADTSKNTAYLQMNSLRAEDTAVYYCARFGVDNYGYMDYWGQGTLVTVSS VL: DIQMTQSPSSLSASVGDRVTITCRASQDVSGWVAWYQQKPGKAPKLLISWSTGLYSGVPSRFSGSGSGTDFTLTISSLQPEDFATYYCQQYFNFPVTFGQGTKVEIKR ; retrieve measured EC50.
Result block: 0.295

Query block: Param item = NP22 (antibody, V domains shown) VH: EVQLVESGGGLVQPGGSLRLSCAASGFTISDWSIHWVRQAPGKGLEWVAGIWPYWGSTSYADSVKGRFTISADTSKNTAYLQMNSLRAEDTAVYYCARGFYSWFDYWGQGTLVTVSS VL: DIQMTQSPSSLSASVGDRVTITCRASQDVFSWVAWYQQKPGKAPKLLISSASSLYSGVPSRFSGSGSGTDFTLTISSLQPEDFATYYCQQSWDYPITFGQGTKVEIKR ; retrieve measured EC50.
Result block: 7.11
